System: ATP;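 further: ATP exposure 15 min at 22 °C before imaging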
Assay: switch fluorescence ratio, 500 uM ATP over buffer (Cy3 cluster intensity, sum of 5 cycles each) (fold (ratio)); higher = stronger signal-on switching upon ATP binding; sequences stand for … in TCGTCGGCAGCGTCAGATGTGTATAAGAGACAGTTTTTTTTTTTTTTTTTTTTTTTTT…TC
Conditions: aptamer strand: ATP DNA aptamer (quencher-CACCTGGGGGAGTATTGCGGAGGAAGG + anchor), 100 nM annealed; ATP concentration: 500 uM
RESULT_TYPE: switch fluorescence ratio

         chain  quantitative_result
 0  TATAAATTGC                 1.01
 1   ATGTTTCGC                0.999
 2  GATAGGGTAT                0.986
 3  GTCCCGGTTT                 1.02
 4  TTACCATTGG                 1.04
 5  GAATCGTTTC                0.996
 6  ATAATTGTTT                0.984
 7  CCGGACAGTG                 1.09
 8  ATTCACTTGA                 1.08
 9  CAACCGTGAG                 1.02
10  GTTTAAAGGT                0.996

* * *

Tested on: ATP;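 further: ATP exposure 15 min at 22 °C before imaging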
Test: switch fluorescence ratio, 500 uM ATP over buffer (Cy3 cluster intensity, sum of 5 cycles each) (fold (ratio)); higher = stronger signal-on switching upon ATP binding; sequences stand for … in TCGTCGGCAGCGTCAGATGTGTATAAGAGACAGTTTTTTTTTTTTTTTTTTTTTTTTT…TC
Conditions: aptamer strand: ATP DNA aptamer (quencher-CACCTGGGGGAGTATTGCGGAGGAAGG + anchor), 100 nM annealed; ATP concentration: 500 uM
We use 1 as the dividing line for switch fluorescence ratio: on or above the line is MET, below is NOT MET.

In [3]: df
Out[3]:
         chain  assigned_class
 0  ATTTACATAT             MET
 1  CCGAGGAGAG             MET
 2  ATTAGAGGTG             MET
 3  TACCGCGGGG             MET
 4  CGTTCCGGGG             MET
 5  GCATGAGGTG             MET
 6  TAGGTTTGGC             MET
 7  CTGCAGGGGA             MET
 8  TGAAATGGGT             MET
 9  CTGTAGGCCC             MET
10  CGGGGACGGT         NOT MET
11  ATGAGCTGGG         NOT MET
12  TGGTGCAATC             MET
13  GAATATGAGA         NOT MET
14  CGGGTTGTCT         NOT MET
15  ACATAGGTGA             MET
16  TTAACAGTGT         NOT MET
17  CCGCCATAAG             MET
18  TCGGGGCTCT             MET
